For each of the compounds below, state its GI50.
# System: OVCAR-4
# assay.summary: NCI tumour cell line growth inhibition, 48 h
Activity calls are given as the source filed them. Rule as the data show it: active = GI50 up to about 1.1 µM and inactive = higher.

compound	system.under.test	GI50
O=C(O)CSc1nc2ccccc2[nH]1	OVCAR-4	> 100 µM (inactive)
CC(C)(CO[C@H]1C[C@H]2CC[C@@]1(C)C2(C)C)[N+](=O)[O-]	OVCAR-4	30.3 µM (inactive)
O=C1/C(=C/c2ccccc2)CCc2ccc([N+](=O)[O-])cc21	OVCAR-4	39.5 µM (inactive)
COc1c(C2=NC(C(C)C)CO2)ccc2ccccc12 (stereo unspecified)	OVCAR-4	31.7 µM (inactive)
Cc1nc(C)c(C(=O)NNC(=O)C[N+](C)(C)C)cc1C(=O)NNC(=O)C[N+](C)(C)C	OVCAR-4	> 100 µM (inactive)

List the reported GI50 of each compound below.
1. CCOP(=O)(OCC)C(Cc1cn(S(=O)(=O)c2ccc(C)cc2)cn1)C(=O)O (stereo unspecified)
2. S=C(Nc1ccc2cn[nH]c2c1)Nc1ccc2cn[nH]c2c1
3. CC(C)Cc1c(C#N)c(C#N)c(N)n1Cc1ccccc1
4. CC(C)OP(=O)(OC(C)C)c1nc(-c2ccccc2)n(-c2ccc([N+](=O)[O-])cc2)n1
5. CCOC(=O)C1(C#N)C(C#N)(C#N)C1(C#N)C#N
6. COc1ccc(CC2NCCc3c2[nH]c2ccccc32)cc1 (stereo unspecified)
7. c1cnc2nc3n(c2c1)CSC3

**A:**
1: > 100 µM (inactive); 2: > 100 µM (inactive); 3: > 100 µM (inactive); 4: > 100 µM (inactive); 5: > 100 µM (inactive); 6: 54 µM (inactive); 7: > 100 µM (inactive)

List the reported GI50 of each compound below.
1. OCc1ccc2c(c1)CC1(Cc3ccc(/C=N/O)cc3C1)C2 (stereo unspecified)
2. CC1=C(C(=O)Nc2ccc(Cl)c(Cl)c2)C(c2ccc([N+](=O)[O-])cc2)C(C(=O)Nc2ccc(Cl)c(Cl)c2)=C(C)N1

**A:**
1.92 µM (inactive)
2.64 µM (inactive)

These data points were gathered from ChEMBL document CHEMBL1201862.
